# Tested on: H3K18Ac in HB-CLS-2 cells
# test details: H3K18AC in-cell western (ICW) assay
# Assay type: cell-based
# condition label: H3K18Ac in-cell western, HB-CLS-2 cells; read-out: CREBBP ICW IC50
Would you mind telling me the reported log10(IC50) of each entry?
In plain terms, each number is the log10 of measured IC50 in µM.

### Prompt Field: log10(IC50) (H3K18Ac in HB-CLS-2 cells). Entry: CCn1ncc(CN(C)C(=O)c2nc(-c3ccc4ccn(C(=O)OC(C)(C)C)c4c3)nc3ccc(Cl)cc23)c1C
### Response 1.30

### Prompt Provide value of log10(IC50) for this record tested with H3K18Ac in HB-CLS-2 cells: CCn1ncc(CN(C)C(=O)c2nc(-c3cccc(F)c3)nc3ccc(Cl)cc23)c1C
### Response 0.23

### Prompt Request - read-out log10(IC50) | tested on H3K18Ac in HB-CLS-2 cells | compound CCn1ncc(CN(C)C(=O)c2nc(-c3cccc(Cl)n3)nc3ccc(Cl)cc23)c1C
### Response 0.56

### Prompt H3K18Ac in HB-CLS-2 cells / log10(IC50) / CCn1ncc(CN(C)C(=O)c2nc(-c3ccccc3Cl)nc3ccccc23)c1C : value?
### Response 1.18

### Prompt Form field - read-out: log10(IC50); system: H3K18Ac in HB-CLS-2 cells; submitted item: CCn1ncc(CN(C)C(=O)c2nc(N3CCN(C)CC3)nc3ccc(Cl)cc23)c1C
### Response 1.30

### Prompt Provide the documented log10(IC50) with H3K18Ac in HB-CLS-2 cells as the system for Cc1c(CN(C)C(=O)c2nc(-c3ccccc3Cl)nc3ccc(Cl)cc23)cnn1CC(F)(F)F
### Response 0.36

### Prompt Query the reported log10(IC50) for H3K18Ac in HB-CLS-2 cells; item: CCn1ncc(CN(C)C(=O)c2nc(-c3ccc(OC)cc3)nc3ccc(Cl)cc23)c1C
### Response 0.65

### Prompt Please state recorded log10(IC50) (tested on H3K18Ac in HB-CLS-2 cells) of CCn1ncc(CN(C)C(=O)c2nc(-c3cc(C#N)n(C)n3)nc3ccc(Cl)cc23)c1C
### Response 1.30

Taken from patent US20220144812A1.
